Target: Nucleic Acid
Experiment: Inhibitory activity against Z-Taq DNA polymerase
Format: nucleic-acid assay, Thermus aquaticus
experimentalReadout: pIC50
Quick note: pIC50 means taking -log10 of the concentration in moles per liter.

Use these answered entries as a reference point.
- O=P(O)(O)OP(=O)(O)OP(=O)(O)OCC1O[C@@H](c2ccc(O)cc2)CC1O (stereo not given in full): 2.43
- O=P(O)(O)OP(=O)(O)OP(=O)(O)OCC1O[C@@H](c2ccccc2O)CC1O (stereo not given in full): 2.51
- O=P(O)(O)OP(=O)(O)OP(=O)(O)OCC1O[C@@H](c2ccc(O)c(O)c2)CC1O (stereo not given in full): 3.52

Could you now consider this next compound?
Request body: readout pIC50, system Nucleic Acid, query O=P(O)(O)OP(=O)(O)OP(=O)(O)OCC1O[C@@H](c2cccc(O)c2)CC1O (stereo not given in full) . Return the value.
2.21
